# subject-of-test: Pex5_(eTPR) (residues 314–666), truncated Pex5 containing an extended TPR domain with a single Wxxx(F/Y) motif (Trypanosoma cruzi, UniProt Q4DPQ9 316-668)
# assay-summary: ITC; Pex5_(eTPR) with the PTS1 peptide (NH2-ARSKL-COOH); who was in the cell is not stated for the peptide; 25 °C
# condition-parameters: both partners purified
reported-property: Kd (nM)

>>> measured_value("H-ARSKL-OH (short peptide encompassing PTS1 of T. cruzi glycosomal MDH, residues 319-ARSKL-323; also called MDH-derived PTS1 peptide) [PTS1 peptide derived from MDH (NH2-ARSKL-COOH)]")
135
